# assay explanation: Cytotoxicity against african green monkey Vero cells by MTT assay
# Format: cell-based
# conditions: chlorocebus sabaeus
For each of the molecules below, state its CC50.

[in] Name the reported CC50 value associated with the molecule CC1(C)CCC[C@@]2(C)[C@H]1C[C@@H](O)[C@@H]1CC(=O)[C@]3(C)CC[C@]12C3
[out] 27.8 µg/mL

[in] Name the reported CC50 value associated with the molecule CC1(C)CCC[C@@]2(C)[C@H]1CC[C@H]1C[C@@H](O)[C@]3(C)CC[C@]12C3
[out] 19.5 µg/mL

[in] Name the reported CC50 value associated with the molecule CC1(C)CCC[C@@]2(C)[C@H]1CCC1=CC(=O)[C@]3(C)CC[C@]12C3
[out] 23.2 µg/mL

[in] Name the reported CC50 value associated with the molecule CC1(C)CCC[C@@]2(C)[C@H]1CC[C@H]1CC(=O)[C@]3(C)CC[C@]12C3
[out] 16.7 µg/mL
